# Test system: Mycobacterium tuberculosis (H37Rv)
# test.summary: Growth in liquid media in presence of test compound
# Format: cell-based
# applied.conditions: 50 mg/L
measurement.kind: Growth in the presence of test compound, M. tuberculosis

- compound: "CC1(C)C2CC3OB([C@@H](CNC(=O)[C@@H](N)CCCCN)Cc4ccc5ccccc5c4)O[C@]3(C)C1C2 (stereo partly shown) [Compound 21]"
  readout.value: "−"
- compound: "CC1(C)C2CC3OB([C@@H](CNC(=O)[C@@H](N)Cc4ccccc4)Cc4ccccc4)O[C@]3(C)C1C2 (stereo partly shown) [Compound 10]"
  readout.value: "−"
- compound: "C[C@@H](NC(=O)[C@@H](N)Cc1ccccc1)[C@@H](Cc1ccccc1)B1OC2CC3CC(C3(C)C)[C@@]2(C)O1 (stereo partly shown) [Compound 27]"
  readout.value: "−"
- compound: "CC1(C)C2CC3OB(C(CNC(=O)C(N)CCCCN)Cc4ccc(F)cc4)OC3(C)C1C2.Cl.Cl (stereo not shown) [Compound 51]"
  readout.value: "−"
